The reported measurements were obtained from patent US20230331803A1.

Could you please report measured pEC50 for the items listed next?
target: human GLP-1 receptor (Homo sapiens, UniProt P43220); construct: expressed in transfected cells; host or cells: BHK (Baby Hamster Kidney) cells, clone BHK 467-12A KZ-10, stably transfected, with CRE-luciferase reporter; test: Human GLP-1 receptor in vitro potency assay (CRE-luciferase reporter, BHK cells); format: cell-based
Sequence (P43220 24-463): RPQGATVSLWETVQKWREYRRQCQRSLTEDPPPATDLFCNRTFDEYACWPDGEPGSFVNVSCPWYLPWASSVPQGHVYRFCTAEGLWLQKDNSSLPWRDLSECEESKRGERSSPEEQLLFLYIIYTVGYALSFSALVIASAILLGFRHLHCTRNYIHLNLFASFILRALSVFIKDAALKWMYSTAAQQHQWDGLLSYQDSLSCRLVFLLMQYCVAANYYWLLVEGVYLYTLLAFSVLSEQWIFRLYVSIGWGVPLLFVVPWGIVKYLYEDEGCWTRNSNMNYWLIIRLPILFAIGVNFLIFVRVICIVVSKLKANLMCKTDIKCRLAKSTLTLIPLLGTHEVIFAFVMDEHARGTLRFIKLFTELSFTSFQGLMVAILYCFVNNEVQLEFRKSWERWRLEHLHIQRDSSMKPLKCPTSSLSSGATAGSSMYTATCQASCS
Starred links: 1 amine or outer side, 2 acyl side, 3 side chain; linkers in the order of their positions; H or OH if unused. Positions of bridges follow the written chain, without caps; N, C: chain ends. Non-standard residues stand in square brackets, D forms with d. Groups on a side chain read outwards from the residue. *: point of attachment. Undecanoyl(11-OPh(4-COOH)) = O=C(O)c1ccc(OCCCCCCCCCCC(=O)*)cc1; Decanoyl(10-(4-HOOC-PhO)) = O=C(O)c1ccc(OCCCCCCCCCC(=O)*)cc1; C18 diacid = O=C(O)CCCCCCCCCCCCCCCCC(=O)*; γGlu = O=C(O)[C@H](CCC(=O)[*:2])N[*:1]; εLys = N[C@@H](CCCCN[*:1])C(=O)[*:2]; AEEA = NCCOCCOCC(=O)O; Aib = CC(C)(N)C(=O)O
To interpret pEC50, take it as minus log10 of a concentration measured in moles per litre.

Look up and report pEC50, with human GLP-1 receptor (Homo sapiens, UniProt P43220) as system, for H-H[Aib]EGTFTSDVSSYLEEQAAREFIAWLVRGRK([AEEA-AEEA-γGlu-C18 diacid])GGGGEKCNTATCATQRLANFLVHSSNNFGPILPPTNVGSNTY-NH2 (disulfide 38-43 (inferred)) [Comparator compound 0671, reference compound] 11.35

Please report pEC50 with human GLP-1 receptor (Homo sapiens, UniProt P43220) for item H-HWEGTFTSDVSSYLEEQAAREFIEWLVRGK([AEEA-AEEA-γGlu-Decanoyl(10-(4-HOOC-PhO))])GEGGGGGASELSTAALGRLSK([AEEA-AEEA-γGlu-Decanoyl(10-(4-HOOC-PhO))])ELHELATLPRTETGSGSP-NH2 [Compound 0233] . 10.33

State measured pEC50 of the substance H-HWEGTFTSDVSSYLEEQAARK([AEEA-AEEA-γGlu-Decanoyl(10-(4-HOOC-PhO))])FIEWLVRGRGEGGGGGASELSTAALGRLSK([AEEA-AEEA-γGlu-Decanoyl(10-(4-HOOC-PhO))])ELHELATLPRTETGSGSP-NH2 [Compound 0231] with human GLP-1 receptor (Homo sapiens, UniProt P43220). 11.25

Specify pEC50 for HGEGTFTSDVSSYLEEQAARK([AEEA-AEEA-γGlu-Decanoyl(10-(4-HOOC-PhO))])FIEWLVRGK([AEEA-AEEA-γGlu-Decanoyl(10-(4-HOOC-PhO))])GEGGGGGGGGGEASELSTAALGRLSAELHELATLPRTETGSGSP-NH2 [Compound 0098] , system human GLP-1 receptor (Homo sapiens, UniProt P43220). 11.10

State recorded pEC50 with human GLP-1 receptor (Homo sapiens, UniProt P43220), entry H-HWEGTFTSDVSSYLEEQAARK([AEEA-AEEA-γGlu-Undecanoyl(11-OPh(4-COOH))])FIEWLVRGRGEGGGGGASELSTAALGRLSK([AEEA-AEEA-γGlu-Undecanoyl(11-OPh(4-COOH))])ELHELATLPRTETGSGSP-NH2 [Compound 0255] , no comment. 11.60

// output pEC50; input H-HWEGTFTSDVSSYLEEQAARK([AEEA-AEEA-γGlu-Decanoyl(10-(4-HOOC-PhO))])FIEWLVRGRGEGGGGGASELSTAALGRLSAELHELK([AEEA-AEEA-γGlu-Decanoyl(10-(4-HOOC-PhO))])TLPRTETGSGSP-NH2 [Compound 0232] ; system human GLP-1 receptor (Homo sapiens, UniProt P43220) 11.19

Write pEC50 of H[Aib]EGTFTSDVSSYLEEQAARK([εLys-AEEA-AEEA-γGlu-C18 diacid])FIAWLVRGK([εLys-AEEA-AEEA-γGlu-C18 diacid])GGGGGGGGGEASELSTAALGRLSAELHELATLPRTETGSGSP-NH2 [Compound 0110] ; system used: human GLP-1 receptor (Homo sapiens, UniProt P43220) 11.57

Identify measured pEC50 obtained with human GLP-1 receptor (Homo sapiens, UniProt P43220) for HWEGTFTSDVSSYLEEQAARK([AEEA-AEEA-γGlu-Decanoyl(10-(4-HOOC-PhO))])FIEWLVRGK([AEEA-AEEA-γGlu-Decanoyl(10-(4-HOOC-PhO))])GEGGGGGEASELSTAALGRLSAELHELATLPRTETGSGSP-NH2 [Compound 0100] . 11.17
